The measured values listed here are drawn from ChEMBL document CHEMBL1140198.

The reader will find reported pIC50 values listed item by item below.
# System: DU-145
# testDetails: Cytotoxicity against human DU145 cells by sulforhodamine B assay
# Type: functional, cell-based
pIC50: −log10 of the molar value.
attributeMeasured: pIC50

molecule="COc1cc([C@@H]2c3cc4c(cc3[C@@H](O[C@@H]3O[C@@H]5CO[C@@H](C)O[C@H]5[C@H](O)[C@H]3O)[C@H]3COC(=O)[C@H]23)OCO4)cc(OC)c1O [ETOPOSIDE]" observedvalue=5.41
molecule=COc1cc([C@@H]2c3cc4c(cc3[C@@H](n3cc(CNc5cccc(Cl)c5)nn3)[C@H]3COC(=O)[C@H]23)OCO4)cc(OC)c1O observedvalue=5.38
molecule=COc1cc([C@@H]2c3cc4c(cc3[C@@H](n3cc(CNc5ccccc5Cl)nn3)[C@H]3COC(=O)[C@H]23)OCO4)cc(OC)c1OC observedvalue=5.45

###

In this section we review reported pIC50 values for a set of compounds.
# Tested on: DU-145
# testDetails: Cytotoxicity against human DU145 cells by sulforhodamine B assay
# Format: functional, cell-based
pIC50: −log10 of the molar value.
attributeMeasured: pIC50

inputsmiles=COc1cc([C@@H]2c3cc4c(cc3[C@@H](n3cc(CNc5cccc(Cl)c5)nn3)[C@H]3COC(=O)[C@H]23)OCO4)cc(OC)c1OC observedvalue=6.03
inputsmiles=COc1cc([C@@H]2c3cc4c(cc3[C@@H](n3cc(CNc5ccccc5)nn3)[C@H]3COC(=O)[C@H]23)OCO4)cc(OC)c1OC observedvalue=5.95
inputsmiles=COc1cc([C@@H]2c3cc4c(cc3[C@H](O)[C@H]3COC(=O)[C@H]23)OCO4)cc(OC)c1OC observedvalue=5.53

###

# testDetails: Cytotoxicity against human 502713 cells by sulforhodamine B assay
# Format: functional, cell-based
attributeMeasured: IC50

compound=COc1cc([C@@H]2c3cc4c(cc3[C@@H](n3cc(CNc5cccc(Cl)c5)nn3)[C@H]3COC(=O)[C@H]23)OCO4)cc(OC)c1O observedvalue="980 nM"
compound=COc1cc([C@@H]2c3cc4c(cc3[C@@H](n3cc(CNc5ccccc5C)nn3)[C@H]3COC(=O)[C@H]23)OCO4)cc(OC)c1OC observedvalue="780 nM"
compound=COc1cc([C@@H]2c3cc4c(cc3[C@@H](n3cc(CNc5ccccc5)nn3)[C@H]3COC(=O)[C@H]23)OCO4)cc(OC)c1O observedvalue="680 nM"
compound=COc1cc([C@@H]2c3cc4c(cc3[C@@H](n3cc(CNc5ccccc5Cl)nn3)[C@H]3COC(=O)[C@H]23)OCO4)cc(OC)c1OC observedvalue="1880 nM"
compound=COc1cc([C@@H]2c3cc4c(cc3[C@@H](n3cc(CNc5cccc([N+](=O)[O-])c5)nn3)[C@H]3COC(=O)[C@H]23)OCO4)cc(OC)c1O observedvalue="1190 nM"
compound=COc1cc([C@@H]2c3cc4c(cc3[C@@H](n3cc(CNc5ccccc5)nn3)[C@H]3COC(=O)[C@H]23)OCO4)cc(OC)c1OC observedvalue="610 nM"
compound=COc1cc([C@@H]2c3cc4c(cc3[C@@H](n3cc(CNc5cccc(Cl)c5)nn3)[C@H]3COC(=O)[C@H]23)OCO4)cc(OC)c1OC observedvalue="710 nM"
compound=COc1cc([C@@H]2c3cc4c(cc3[C@@H](n3cc(CNc5cccc([N+](=O)[O-])c5)nn3)[C@H]3COC(=O)[C@H]23)OCO4)cc(OC)c1OC observedvalue="560 nM"
compound=COc1cc([C@@H]2c3cc4c(cc3[C@H](O)[C@H]3COC(=O)[C@H]23)OCO4)cc(OC)c1OC observedvalue="3880 nM"
compound="COc1cc([C@@H]2c3cc4c(cc3[C@@H](O[C@@H]3O[C@@H]5CO[C@@H](C)O[C@H]5[C@H](O)[C@H]3O)[C@H]3COC(=O)[C@H]23)OCO4)cc(OC)c1O [ETOPOSIDE]" observedvalue="2420 nM"
compound=COc1cc([C@@H]2c3cc4c(cc3[C@@H](n3cc(CNc5ccccc5C)nn3)[C@H]3COC(=O)[C@H]23)OCO4)cc(OC)c1O observedvalue="620 nM"

###

# System: DU-145
# testDetails: Cytotoxicity against human DU145 cells by sulforhodamine B assay
# Format: functional, cell-based
IC50 strictly less than 1 µM = Condition met. Otherwise Condition not met.

inputsmiles=COc1cc([C@@H]2c3cc4c(cc3[C@@H](n3cc(CNc5cccc([N+](=O)[O-])c5)nn3)[C@H]3COC(=O)[C@H]23)OCO4)cc(OC)c1O qualitativelabel="Condition not met"
inputsmiles=COc1cc([C@@H]2c3cc4c(cc3[C@@H](n3cc(CNc5ccccc5C)nn3)[C@H]3COC(=O)[C@H]23)OCO4)cc(OC)c1O qualitativelabel="Condition not met"
inputsmiles=COc1cc([C@@H]2c3cc4c(cc3[C@@H](n3cc(CNc5ccccc5C)nn3)[C@H]3COC(=O)[C@H]23)OCO4)cc(OC)c1OC qualitativelabel="Condition not met"
inputsmiles=COc1cc([C@@H]2c3cc4c(cc3[C@@H](n3cc(CNc5cccc([N+](=O)[O-])c5)nn3)[C@H]3COC(=O)[C@H]23)OCO4)cc(OC)c1OC qualitativelabel="Condition met"
inputsmiles=COc1cc([C@@H]2c3cc4c(cc3[C@@H](n3cc(CNc5ccccc5)nn3)[C@H]3COC(=O)[C@H]23)OCO4)cc(OC)c1O qualitativelabel="Condition not met"

###

# Tested on: SF-295
# testDetails: Cytotoxicity against human SF295 cells by sulforhodamine B assay
# Type: functional, cell-based
// NB: equality with 800 nM counts as NO; only IC50 strictly below is YES

molecule=COc1cc([C@@H]2c3cc4c(cc3[C@@H](n3cc(CNc5ccccc5C)nn3)[C@H]3COC(=O)[C@H]23)OCO4)cc(OC)c1OC qualitativelabel=NO
molecule=COc1cc([C@@H]2c3cc4c(cc3[C@@H](n3cc(CNc5ccccc5Cl)nn3)[C@H]3COC(=O)[C@H]23)OCO4)cc(OC)c1OC qualitativelabel=NO
molecule=COc1cc([C@@H]2c3cc4c(cc3[C@@H](n3cc(CNc5cccc(Cl)c5)nn3)[C@H]3COC(=O)[C@H]23)OCO4)cc(OC)c1O qualitativelabel=NO
molecule=COc1cc([C@@H]2c3cc4c(cc3[C@@H](n3cc(CNc5ccccc5)nn3)[C@H]3COC(=O)[C@H]23)OCO4)cc(OC)c1O qualitativelabel=YES
molecule=COc1cc([C@@H]2c3cc4c(cc3[C@@H](n3cc(CNc5cccc([N+](=O)[O-])c5)nn3)[C@H]3COC(=O)[C@H]23)OCO4)cc(OC)c1O qualitativelabel=NO
molecule="COc1cc([C@@H]2c3cc4c(cc3[C@@H](O[C@@H]3O[C@@H]5CO[C@@H](C)O[C@H]5[C@H](O)[C@H]3O)[C@H]3COC(=O)[C@H]23)OCO4)cc(OC)c1O [ETOPOSIDE]" qualitativelabel=NO
molecule=COc1cc([C@@H]2c3cc4c(cc3[C@H](O)[C@H]3COC(=O)[C@H]23)OCO4)cc(OC)c1OC qualitativelabel=NO
molecule=COc1cc([C@@H]2c3cc4c(cc3[C@@H](n3cc(CNc5cccc(Cl)c5)nn3)[C@H]3COC(=O)[C@H]23)OCO4)cc(OC)c1OC qualitativelabel=NO
molecule=COc1cc([C@@H]2c3cc4c(cc3[C@@H](n3cc(CNc5ccccc5C)nn3)[C@H]3COC(=O)[C@H]23)OCO4)cc(OC)c1O qualitativelabel=NO
molecule=COc1cc([C@@H]2c3cc4c(cc3[C@@H](n3cc(CNc5cccc([N+](=O)[O-])c5)nn3)[C@H]3COC(=O)[C@H]23)OCO4)cc(OC)c1OC qualitativelabel=YES

###

Listed below: pIC50 values for each entry.
# System: HCT-15
# testDetails: Cytotoxicity against human HCT-15 cells by sulforhodamine B assay
# Type: functional, cell-based
pIC50: −log10 of the molar value.
attributeMeasured: pIC50

inputsmiles=COc1cc([C@@H]2c3cc4c(cc3[C@@H](n3cc(CNc5cccc(Cl)c5)nn3)[C@H]3COC(=O)[C@H]23)OCO4)cc(OC)c1OC targetortestsystem=HCT-15 observedvalue=6.47
inputsmiles=COc1cc([C@@H]2c3cc4c(cc3[C@@H](n3cc(CNc5ccccc5Cl)nn3)[C@H]3COC(=O)[C@H]23)OCO4)cc(OC)c1OC targetortestsystem=HCT-15 observedvalue=5.84
inputsmiles=COc1cc([C@@H]2c3cc4c(cc3[C@@H](n3cc(CNc5ccccc5)nn3)[C@H]3COC(=O)[C@H]23)OCO4)cc(OC)c1O targetortestsystem=HCT-15 observedvalue=6.40
inputsmiles=COc1cc([C@@H]2c3cc4c(cc3[C@H](O)[C@H]3COC(=O)[C@H]23)OCO4)cc(OC)c1OC targetortestsystem=HCT-15 observedvalue=6.00
inputsmiles=COc1cc([C@@H]2c3cc4c(cc3[C@@H](n3cc(CNc5cccc([N+](=O)[O-])c5)nn3)[C@H]3COC(=O)[C@H]23)OCO4)cc(OC)c1OC targetortestsystem=HCT-15 observedvalue=7.40
